All values here come from patent US10344077.

# system_tested: T1, Jo-1 (UniProt P12081)
# T1 sequence (looked up): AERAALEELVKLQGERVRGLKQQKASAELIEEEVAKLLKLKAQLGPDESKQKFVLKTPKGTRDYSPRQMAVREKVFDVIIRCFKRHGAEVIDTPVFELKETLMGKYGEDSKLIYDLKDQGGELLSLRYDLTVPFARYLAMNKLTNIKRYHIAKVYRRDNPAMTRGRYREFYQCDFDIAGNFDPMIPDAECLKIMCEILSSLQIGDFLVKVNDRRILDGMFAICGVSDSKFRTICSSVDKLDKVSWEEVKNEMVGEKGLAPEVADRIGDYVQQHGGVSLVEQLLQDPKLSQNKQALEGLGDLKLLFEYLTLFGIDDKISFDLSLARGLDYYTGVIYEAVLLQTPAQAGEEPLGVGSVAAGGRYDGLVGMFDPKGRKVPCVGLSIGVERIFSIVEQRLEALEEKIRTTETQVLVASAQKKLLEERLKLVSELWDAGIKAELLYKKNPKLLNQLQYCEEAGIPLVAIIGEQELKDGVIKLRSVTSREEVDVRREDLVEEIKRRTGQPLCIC
# method_description: AtheNA, Ab 12.5 ug/ml
endpoint_name: Athena reading (relative luminescence units)
# output: bare number, no unit

Requested read-out: Athena reading (relative luminescence units). Entry: CH235_4A (antibody, from a related filing, V domains shown) VH: QVQLVQSGAEVKKPGASVTVSCQASGYTFTNYYVHWVRQAPGQGLQLMGWIDPSWGRTNYAQNFQGRITMTRDTSTSTVYMEMRSLRSEDTAVYYCARNVATEGSLLHYDYWGQGTLVTVSA VL: EIVLTQSPATLSVSPGERATLSCRASQSVRSNLAWYQQRPGQAPRLLIYGTSTRATGVPARFSGRGSGTEFTLAISSMQSEDFAVYLCLQYNNWWTFGQGTKVEIK
3

// next record CH239_4A/293i (antibody, from a related filing, V domains shown) VH: QVQLVQSGAEVRKPGASVTVSCKASGYTFNNFYVHWVRQAPGQGLECMGWIDPSVGRINYAQKFQGRVTMTRDRSTSTVYMGLSSLRSEDTAIYYCVRDVGTEGSLLHFDHWGQGTLVIVSA VL: EIVLTQSPATLSVSPGERATLSCRATQSVRSNVAWYQQKPGQAPRLLIYSASTRATGIPARFSGSGSGTEFTLTIASMQSEDFAVYYCLQYDDWWTFGQGTKVEIK
8

// next record CH241 (antibody, from a related filing, V domains shown) VH: QVQLVQSGAAVKKPGASVRVSCKASGYTFTSSHIHWVRQAPGQGPEWMGMIDPSVGRPTTAGKFQGRVTMTRDRYTSTAYMDLSSLRSEDTAVYYCARSVETTGSLLYFDYWGQGTLITVSS VL: EIVLTQSPATLSVSPGERATLSCRASQSVRSNIAWYQQKPGQAPRLLIHGASTRATGIPGRFSGSGSGPEFTLAISSVQSEDFAVYYCQQYNDWWTFGQGTKVEIK
6

// next record CH240_4A/293i (antibody, from a related filing, V domains shown) VH: QVQLVQSGTEVRKPGASVTISCKASGYTFNNFYVHWVRQAPGQGLECMGWIDPSVGRISYGQKFQGRVTMTRDRSTSTVYMGLSSLRSEDTAMYYCVRDVGTEGSLLHFDHWGQGTLVIVSA VL: EIVLTQSPATLSVSPGERATLSCRATQSVRSNLAWYQQKRGQAPRLLIYSASTRATGIPARFSGSGSGTEFTLTISSVQSEDFAVYYCLQYNNWWTFGQGTKVEIK
7
